Readings of IC50 for the listed compounds
target_or_test_system: N-type calcium channel (Homo sapiens, UniProt Q00975)
Sequence (Q00975 whole entry): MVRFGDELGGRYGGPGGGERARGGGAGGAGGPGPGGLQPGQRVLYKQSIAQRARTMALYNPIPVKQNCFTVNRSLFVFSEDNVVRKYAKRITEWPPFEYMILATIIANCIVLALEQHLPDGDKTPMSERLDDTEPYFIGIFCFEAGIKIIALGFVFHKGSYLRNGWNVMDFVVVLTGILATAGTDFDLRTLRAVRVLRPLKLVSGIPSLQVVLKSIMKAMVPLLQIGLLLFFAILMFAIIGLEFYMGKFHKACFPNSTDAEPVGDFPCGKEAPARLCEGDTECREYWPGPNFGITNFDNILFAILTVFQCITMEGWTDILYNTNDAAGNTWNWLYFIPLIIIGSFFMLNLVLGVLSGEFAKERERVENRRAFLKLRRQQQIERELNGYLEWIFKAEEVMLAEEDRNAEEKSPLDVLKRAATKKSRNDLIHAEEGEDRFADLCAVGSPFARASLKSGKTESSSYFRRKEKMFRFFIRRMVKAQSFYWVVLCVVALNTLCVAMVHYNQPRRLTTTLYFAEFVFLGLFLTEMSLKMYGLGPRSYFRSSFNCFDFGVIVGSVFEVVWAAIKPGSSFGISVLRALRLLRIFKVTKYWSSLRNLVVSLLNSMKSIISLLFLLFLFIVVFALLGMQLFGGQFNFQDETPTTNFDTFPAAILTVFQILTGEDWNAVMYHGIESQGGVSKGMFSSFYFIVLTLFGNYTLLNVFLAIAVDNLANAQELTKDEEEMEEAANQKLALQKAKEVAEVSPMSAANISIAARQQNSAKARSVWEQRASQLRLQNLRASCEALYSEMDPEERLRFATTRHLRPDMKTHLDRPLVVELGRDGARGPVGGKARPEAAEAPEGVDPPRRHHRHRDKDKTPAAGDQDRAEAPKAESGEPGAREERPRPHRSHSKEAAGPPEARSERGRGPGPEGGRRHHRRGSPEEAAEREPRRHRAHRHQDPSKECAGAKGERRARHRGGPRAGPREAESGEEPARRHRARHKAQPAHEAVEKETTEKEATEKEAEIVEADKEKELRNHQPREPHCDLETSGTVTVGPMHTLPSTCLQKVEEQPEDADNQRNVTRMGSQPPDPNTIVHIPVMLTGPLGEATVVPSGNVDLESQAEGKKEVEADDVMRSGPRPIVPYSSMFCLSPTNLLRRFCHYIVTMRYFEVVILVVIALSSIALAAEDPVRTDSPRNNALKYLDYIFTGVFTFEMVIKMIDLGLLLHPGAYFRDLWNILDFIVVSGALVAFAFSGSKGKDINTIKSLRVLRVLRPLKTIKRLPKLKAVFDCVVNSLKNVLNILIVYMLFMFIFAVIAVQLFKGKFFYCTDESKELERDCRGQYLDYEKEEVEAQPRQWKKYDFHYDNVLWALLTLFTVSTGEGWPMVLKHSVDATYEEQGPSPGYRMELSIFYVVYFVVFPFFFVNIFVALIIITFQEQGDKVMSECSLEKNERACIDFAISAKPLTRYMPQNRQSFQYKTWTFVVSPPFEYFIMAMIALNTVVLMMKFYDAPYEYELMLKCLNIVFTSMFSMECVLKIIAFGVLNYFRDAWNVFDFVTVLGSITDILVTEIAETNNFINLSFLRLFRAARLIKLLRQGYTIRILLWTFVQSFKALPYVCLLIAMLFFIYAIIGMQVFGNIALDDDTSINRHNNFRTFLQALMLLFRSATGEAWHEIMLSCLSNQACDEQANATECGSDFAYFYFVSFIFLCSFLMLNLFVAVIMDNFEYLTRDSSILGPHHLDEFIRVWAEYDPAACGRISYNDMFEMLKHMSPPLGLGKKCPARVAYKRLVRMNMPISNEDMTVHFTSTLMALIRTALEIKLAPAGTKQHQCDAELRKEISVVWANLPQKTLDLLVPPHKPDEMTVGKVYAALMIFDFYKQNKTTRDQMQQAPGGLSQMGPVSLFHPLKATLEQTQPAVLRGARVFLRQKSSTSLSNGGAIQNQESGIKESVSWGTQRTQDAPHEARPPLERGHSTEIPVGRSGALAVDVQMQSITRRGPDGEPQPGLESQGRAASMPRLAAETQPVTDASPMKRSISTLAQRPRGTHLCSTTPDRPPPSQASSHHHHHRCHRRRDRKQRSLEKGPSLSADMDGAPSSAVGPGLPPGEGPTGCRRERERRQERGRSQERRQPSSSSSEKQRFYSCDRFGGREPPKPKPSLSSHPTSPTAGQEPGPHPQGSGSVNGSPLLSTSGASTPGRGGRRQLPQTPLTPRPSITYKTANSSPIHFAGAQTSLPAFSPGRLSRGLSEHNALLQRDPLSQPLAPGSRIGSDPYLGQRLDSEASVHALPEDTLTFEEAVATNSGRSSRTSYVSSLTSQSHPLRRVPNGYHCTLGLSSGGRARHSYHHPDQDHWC
Sequence (P54284 whole entry partner): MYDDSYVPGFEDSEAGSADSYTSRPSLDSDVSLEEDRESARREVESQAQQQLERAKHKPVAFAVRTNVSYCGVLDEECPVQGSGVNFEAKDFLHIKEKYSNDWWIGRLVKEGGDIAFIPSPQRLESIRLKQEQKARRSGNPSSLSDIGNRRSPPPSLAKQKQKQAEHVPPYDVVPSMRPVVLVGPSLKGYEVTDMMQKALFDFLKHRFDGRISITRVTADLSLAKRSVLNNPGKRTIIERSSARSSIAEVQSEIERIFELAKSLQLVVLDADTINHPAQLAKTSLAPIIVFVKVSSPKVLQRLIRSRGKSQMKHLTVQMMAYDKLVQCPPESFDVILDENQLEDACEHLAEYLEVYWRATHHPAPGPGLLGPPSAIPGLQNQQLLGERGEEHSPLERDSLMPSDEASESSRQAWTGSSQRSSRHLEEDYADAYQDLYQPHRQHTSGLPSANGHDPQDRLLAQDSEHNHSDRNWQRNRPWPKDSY
Sequence (P54289 25-956 partner limits assumed): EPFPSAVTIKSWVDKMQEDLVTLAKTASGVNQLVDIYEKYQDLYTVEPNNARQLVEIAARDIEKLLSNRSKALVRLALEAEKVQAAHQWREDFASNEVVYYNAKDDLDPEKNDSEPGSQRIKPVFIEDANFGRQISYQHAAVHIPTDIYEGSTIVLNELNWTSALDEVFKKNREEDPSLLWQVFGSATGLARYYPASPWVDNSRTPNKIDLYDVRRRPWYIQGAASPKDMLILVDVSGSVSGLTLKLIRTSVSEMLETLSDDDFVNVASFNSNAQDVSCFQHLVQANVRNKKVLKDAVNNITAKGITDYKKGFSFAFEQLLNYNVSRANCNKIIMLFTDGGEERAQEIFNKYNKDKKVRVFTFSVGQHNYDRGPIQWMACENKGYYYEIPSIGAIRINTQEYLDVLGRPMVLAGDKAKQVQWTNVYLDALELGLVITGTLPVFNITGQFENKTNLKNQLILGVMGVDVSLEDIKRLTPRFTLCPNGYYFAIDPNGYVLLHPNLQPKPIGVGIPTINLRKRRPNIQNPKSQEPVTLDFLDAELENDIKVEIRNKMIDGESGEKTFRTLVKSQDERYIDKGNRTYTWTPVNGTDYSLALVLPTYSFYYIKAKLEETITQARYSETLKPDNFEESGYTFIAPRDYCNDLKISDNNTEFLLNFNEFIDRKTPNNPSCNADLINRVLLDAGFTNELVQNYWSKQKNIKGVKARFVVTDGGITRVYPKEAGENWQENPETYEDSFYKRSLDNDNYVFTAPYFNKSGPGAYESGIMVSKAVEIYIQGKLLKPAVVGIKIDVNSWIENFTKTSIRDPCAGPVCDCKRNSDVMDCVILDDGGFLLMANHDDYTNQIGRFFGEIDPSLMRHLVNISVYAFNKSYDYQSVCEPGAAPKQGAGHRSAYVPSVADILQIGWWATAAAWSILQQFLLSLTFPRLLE
Sequence (P54289 957-1103 partner limits assumed): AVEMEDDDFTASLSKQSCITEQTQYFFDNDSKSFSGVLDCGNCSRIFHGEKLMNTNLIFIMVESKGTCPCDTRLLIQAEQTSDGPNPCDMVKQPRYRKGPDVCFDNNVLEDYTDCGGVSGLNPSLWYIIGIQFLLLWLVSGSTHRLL
assay_name: Antagonistic activity on N-type calcium channel (fluorescence dye method)
Format: cell-based
readout_label: IC50 (nM)

compound="CC1=C(C(=O)NCCC(c2ccccc2)c2ccccc2)C(c2cccc(Cl)c2)NC(=O)N1 (stereo not shown) [Example 3]" uom=nM recorded_value=891
compound="O=C(NCCC(c1ccccc1)c1ccccc1)C1=C(COCCC2CCCCC2)NC(c2ccccc2)=NC1c1cccc(Cl)c1 (stereo not shown) [Example 1]" uom=nM recorded_value=1260
compound="O=C(NC/C=C/c1ccccc1)C1=C(COCCC2CCCCC2)NC(c2ccccc2)=NC1c1cccc(Cl)c1 (stereo not shown) [Example 2]" uom=nM recorded_value=5890
compound="COCC1=C(C(=O)NCCCc2ccccc2)C(c2cccc(Cl)c2)NC(=O)N1 (stereo not shown) [Example 6]" uom=nM recorded_value=977

* * *

target_or_test_system: N-type calcium channel (Homo sapiens, UniProt Q00975)
assay_name: N-type calcium channel antagonistic activity, changed procedure (fluorescence dye method, calculated from inhibition rates)
Assay type: cell-based
condition_info: IMR-32 cells, 60 mM KCl stimulation, Table 3, read-out: N-type inhibition pIC50 (converted)
As shown below, each of these molecules has a reported IC50 value.
readout_label: IC50 (µM)

molecule="CC1=C(C(=O)NCCC(c2ccccc2)c2ccccc2)C(c2cccc(Cl)c2)NC(=O)N1 (stereo not shown)" recorded_value=2.51
molecule="COCC1=C(C(=O)NCCCc2ccccc2)C(c2cccc(Cl)c2)NC(=O)N1 (stereo not shown)" recorded_value=5.01
molecule="CC1=C(C(=O)NCCC(c2ccccc2)c2ccccc2)C(c2cccc(Cl)c2)N=C(c2ccccc2)N1 (stereo not shown)" recorded_value=1.58
molecule="O=C(NCCC(c1ccccc1)c1ccccc1)C1=C(COCCC2CCCCC2)NC(c2ccccc2)=NC1c1cccc(Cl)c1 (stereo not shown)" recorded_value=7.94
